Source: patent US20250304658A1

# tested target: BK virus VP1 protein, genotype II (BK virus)
# test details: cell-based or functional assay
assay metric: EC50, pseudovirus neutralization

binder | EC50, pseudovirus neutralization
2F7 (antibody, V domains shown) VH: QVQLVESGGGLVKPGGSLRLSCVASGFTFSDYYMNWIRLPPGRGLQWISYIDSSAGAIYYADSVKGRFTVSRDDAKNSLYLQMNSLRADDTAVYYCARERRDGHKIFDWWGQGTLVTVSS VL: DIVMTQSPDSLAVSLGERATINCKSSQNILYTSNNKNYLGWYQQKAGQPPKLLIYWSSTRNSGVPDRFSGSGSGTDFTLTISSLQAEDVAVYYCHQYYSSPYTFGQGTNLEIK | 0.0011 nM
9G9 (antibody, V domains shown) VH: EVQLLESGGGLVQPGGSLRLSCAASGFTFHNYAMSWVRQAPGKGLEWVSGISGSGGTAYYADSVKGRFTISRDNSKNTLYLQMNSLRADDTALYYCAKDRFLEWVEGFDSWGQGTLVTVSS VL: DIQMTQSPSSLSASVGDRVTITCRASQSIGSFLIWYQQKPGKAPKLLIYAASSLQSGVPSRFSGSGSGTDFTLIISSLQPEDFATYYCQQSYNTPLTFGGGTKVEIK | 0.0032 nM
7A4 (antibody, V domains shown) VH: QVQLVESGGDLVKPGGSLRLSCVASGFTFSDYYMNWIRLPPGKGLEWISYIDSSAGAIYYADSVKGRFTVSRDDAKNSLFLHMNSLRADDTAVYYCVRERRDGHKIFDYWGPGTLVTVSS VL: DIVMTQSPDSLAVSLGERATINCKSSQNILYSSNNKNYLAWYQQKAGQPPKLLIFWSSIRESGVPDRFSGSGSGTDFTLTISSLQAEDVAVYYCQQYYSSPYNFGRGTTLEIK | 0.0132 nM

Hi, could you look up EC50, pseudovirus neutralization for each item in my list?
1. 11D12 (antibody, V domains shown) VH: EVQLVESGGGLVQPGGSLRLSCAASGFTFSSYEMNWVRQAPGKGLEWVSYISSGGSSIKYADSVRGRFTFSRDNAENSVFLQMNSLRGEDTAVYYCARVGGSYYYSYAMDVWGQGTAVTVSS VL: DIQLTQSPSFLSASVGDRVTITCWASQDISSYLAWYQQKPGKAPKLLIYAASTLQSGVPSRFSGSGSGTEFTLTISSLQPEDFATYYCQQPNNYPFSFGPGTKVDVK
2. 6E1 (antibody, V domains shown) VH: EVQLLESGGGLVQPGGSLRLSCAASGFTFSSFAMSWVRQAPGKGLEWVSGISGSGGSTYYADSVKGRFTISRDNSKNTLYLQMNSLRAEDTAIYYCAKDKRNWNYGIDSFDFWGQGTMVTVSS VL: DIQMTQSPSSLSASVGGRVTITCRTSQSISGYLNWYQQKAGKAPKLLIYATSNLQSGVPSRFTGSGSGTDFTLTISSLQPEDFAAYYCHQSHSPPFTFGPGTKVAFK
3. 14F5 (antibody, V domains shown) VH: EVQLLESGGGLVQPGGSLRLSCAVSGFTFSSFAMSWVRQAPGKGLEWVSGISASGGTTNYADSVKGRFTISRDNSKNTLYLQMSSLRAEDTAEYYCAKDRFLEWVEGFDPWGQGILVTVSP VL: DIQMTQSPSSLSASVGDRVTITCRASQSIGRFLIWYQQKPGKAPKLLLYATSSLQSGVPARFTGSGSGTDFTLTIGSLQPEDFATYYCQQSYITPLTFGGGTKVEIK

["0.0095 nM", "> 6.67 nM", "0.0131 nM"]

Hi, could you look up EC50, pseudovirus neutralization for each item in my list?
1. 2F11 (antibody, V domains shown) VH: EVQLVQSGAEVKKPGESLKISCKGSGYSFTNYWIGWVRQMPGKGLEWMGIIYPGDSDTRYSPSFQGQVTLSADKSISTAYLQWNSLKASDTAMYYCATHARSWNYVAYWGQGTLVTVAS VL: DIQMTQSPSSLSASVGDRVTITCRASQSVNNFLNWYQQKPGTAPKLLIYAASSLQGGVPSRFSGSGSGTDFTLTISSLQPEDFATYYCQQSNTTPWTFGQGTKVEIK
2. 8A11 (antibody, V domains shown) VH: QVQLVESGGDLVKPGGSLRLSCVASGFTFSDYYMNWIRLPPGKGLEWISYIDSSAGATYYADSVKGRFTVSRDDAKNSLFLHMNSLRAEDTAVYYCARERRSGHKIFDCWGPGTLVTVSS VL: DIVMTQSPDSLAVSLGERATINCKSSQNILYSSNNKNYLAWYQQKAGQPPKLLIFWSSTRESGVPDRFSGSGSGTDFTLTISSLQAEDVAVYYCQQYYSSPYNFGRGTTLEIK
3. 7H8 (antibody, V domains shown) VH: EVQLLESGGGLVQPGGSLRLSCAASGFAFHTYDMTWVRQAPGKGLEWVSGVVGSGINTYYADSVKGRFTISRDNSKSTLYLQMNSLRAEDTAVYYCAKDSSSWFSLHYWGQGTLVTVSS VL: DIQMTQSPSTLSASVGDRVTITCRASQSISNWLAWYQQKPGKAPKLLIYKASSLESGVPSRFSGSGSGTDFTLTISSLQPDDFASYYCQQYRSYAYTFGQGTKLEIT
4. 2B9 (antibody, V domains shown) VH: EVQLLESGGGLAQPGKSLRLSCAASGFTFSGFAMSWVRQAPGKGLEWVSGISGSGDITYYADSVKGRFTISRDNSKSTLYLQMNSLGAEDTAVYYCAKDPYNWNHGVYGMDVWGQGTTVTVSS VL: DIQMTQSPSSLSASVGDRVTITCRASQSISSYLNWYQQKPGKAPKFLIYGASSLQSGVPSRFSGSGSGTDFTLTISSLQPEDFAAYYCQQSFNAPLTFGGGTKVEIK

0.0838 nM
0.0014 nM
0.05 nM
0.154 nM
